Target: T1, ZFP SBS#738 (synthetic)
T1 chain: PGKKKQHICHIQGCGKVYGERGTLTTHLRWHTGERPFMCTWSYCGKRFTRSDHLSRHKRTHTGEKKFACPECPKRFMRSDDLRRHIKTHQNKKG
Experiment: EMSA
Details: tags: MBP fusion
property.name: Kd (nM)
Report only the number, with the unit nM understood.

Form: binder = GCGGGGTCCG (dsDNA) DNA 1: GCGGGGTCCG DNA 2: CGGACCCCGC ; Kd = 120
